This collection of values is drawn from patent US20260242478A1.

target.desc: T1, Anti-CD28 Fab (SEQ ID NOs: 696, 697)
T1 construct: Biotinylated and captured on neutravidin coated plates in the phage ELISA
assay.details: phage binding ELISA; Fab wells pre-incubated with CD28 antigen as competitor, anti-M13 HRP
Where no end group is shown, it is not given here.
Kindly supply the reported Anti-CD28 Fab signal in the presence of CD28 values for the records listed here.
Answer with a bare number; do not write a unit.

Asked: Look up Anti-CD28 Fab signal in the presence of CD28 for this binder: YCEGHSWANLGKCL (cysteine pairing not given here; also: displayed on phage as fusion to pIII, linker, pIII sequence and order not given here, Clonal phage supernatant; not shown: pIII filament protein of the bacteriophage to which the peptide is fused) [Phage-537]
Given back: 0.08

Asked: Please do the same for YCDGHLPQYMAKCL (cysteine pairing not given here; also: displayed on phage as fusion to pIII, linker, pIII sequence and order not given here, Clonal phage supernatant; not shown: pIII filament protein of the bacteriophage to which the peptide is fused) [Phage-528] as well.
Given back: 0.15

Asked: Consider next the binder YCEGHLPEYMLKCL (cysteine pairing not given here; also: displayed on phage as fusion to pIII, linker, pIII sequence and order not given here, Clonal phage supernatant; not shown: pIII filament protein of the bacteriophage to which the peptide is fused) [Phage-539] in the same way.
Given back: 0.09
